Please go through the items and note down their IC50.
target or system: LTC4 synthase (Homo sapiens, UniProt Q16873)
Sequence (Q16873 1-150): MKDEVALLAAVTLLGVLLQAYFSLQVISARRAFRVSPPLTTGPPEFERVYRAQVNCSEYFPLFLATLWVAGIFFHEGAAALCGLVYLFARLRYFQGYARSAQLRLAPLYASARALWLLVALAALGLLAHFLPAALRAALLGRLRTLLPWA
run description: Test 1 in vitro assay: LTC4 synthase converts LTA4 to LTC4, HTRF detection
Format: biochemical
Design: made in house; host or cells: Pichia pastoris
measurement setup: Table 2; Test 1 (unless otherwise indicated)
Enter your answer as a number in nM; do not include the unit.

# `O=C(c1ccc(C(=O)C2(c3ccccc3)CC2)c(C(=O)O)c1)c1ccc(N(CC2CC2)c2ccc(Cl)cc2)cn1` with LTC4 synthase (Homo sapiens, UniProt Q16873): IC50 is 41

Assay LTC4 synthase (Homo sapiens, UniProt Q16873), sample CN(c1ccc(Cl)cc1)c1ccc(C(=O)c2ccc(C(=O)C3CC3c3ccccc3)c(C(=O)O)c2)nc1 (stereo not shown) , IC50 read: 141

Response field IC50 (LTC4 synthase (Homo sapiens, UniProt Q16873)) for item `CN(c1ccc(Cl)cc1)c1ccc(C(=O)c2ccc(C(=O)C34CC5CC(CC(C5)C3)C4)c(C(=O)O)c2)nc1` : 65

// assay LTC4 synthase (Homo sapiens, UniProt Q16873), entry CN(c1ccc(Cl)cc1)c1ccc(C(=O)c2ccc(C(=O)C3CC4CCC3C4)c(C(=O)O)c2)nc1 (stereo not shown) , IC50 value = 94

The reported LTC4 synthase (Homo sapiens, UniProt Q16873) IC50 of `CN(c1ccc(Cl)cc1)c1ccc(C(=O)c2ccc(C(=O)C(C)(C)c3ccccc3)c(C(=O)O)c2)nc1` is 55

Here `COc1cccc(CC(=O)c2ccc(C(=O)c3ccc(N(C)c4ccc(Cl)cc4)cn3)cc2C(=O)O)c1` was tested on LTC4 synthase (Homo sapiens, UniProt Q16873), and its IC50 came to 192

Response field IC50 (LTC4 synthase (Homo sapiens, UniProt Q16873)) for item `CN(c1ccc(Cl)cc1)c1ccc(C(=O)c2ccc(C(=O)C3(c4ccccc4)CCCCC3)c(C(=O)O)c2)nc1` : 32

====

target or system: LTC4 synthase (Homo sapiens, UniProt Q16873)
run description: Test 1 in vitro assay: LTC4 synthase converts LTA4 to LTC4, HTRF detection
Assay type: biochemical
Design: made in house; host or cells: Pichia pastoris
measurement setup: Test 1 (unless otherwise indicated)
Procedure: In the assay, LTC4 synthase catalyses the reaction where the substrate LTA4 is converted to LTC4. Recombinant human LTC4 synthase is expressed in Piccia pastoralis and the purified enzyme is dissolved in 25 mM tris-buffer pH 7.8 supplemented with 0.1 mM glutathione (GSH) and stored at −80° C. The assay is performed in phosphate buffered saline (PBS) pH 7.4 and 5 mM GSH in 384-well plates. […] 1. […] 10 μL of the incubation mixture is analysed using homogenous time resolved fluorescent (HTRF) detection. […]
Lab note: compare IC50 with 80 nM, writing T if less and F if equal or more.

[Q] Consider `COc1cccc(C(=O)c2ccc(C(=O)c3ccc(Cc4ccc(Cl)cc4)cn3)cc2C(=O)O)c1` . Does its IC50 lie strictly below 80 nM?
[A] F

[Q] Given `O=C(c1ccc(Cl)cc1)c1ccc(C(=O)c2ccc(C(=O)c3ccccc3)c(C(=O)O)c2)nc1` , is recorded IC50 strictly lower than 80 nM?
[A] F

[Q] Criterion: IC50 strictly below 80 nM. Is it met by `CN(c1ccc(Cl)cc1)c1ccc(C(=O)c2ccc(C(=O)c3cccc(C(Cl)Cl)c3)c(C(=O)O)c2)nc1` ?
[A] T

[Q] Please determine if `CN(c1ccc(Cl)cc1)c1ccc(C(=O)c2ccc(C(=O)c3cccc(C=O)c3)c(C(=O)O)c2)nc1` is below 80 nM in terms of IC50.
[A] T

[Q] Consider `CN(c1ccc(Cl)cc1)c1ccc(C(=O)c2ccc(C(=O)c3cccc(O)c3)c(C(=O)O)c2)nc1` . Does its IC50 lie strictly below 80 nM?
[A] F

[Q] Check if IC50 falls below 80 nM for `O=C(c1ccc(C(=O)c2ccc3c(c2)OCCO3)c(C(=O)O)c1)c1ccc(N(CC2CC2)c2ccc(Cl)cc2)cn1` .
[A] T
